Assay: yeast display, Sf9 membrane polyspecificity reagent, FACS + sequencing; frameworks hold sequencing errors
Measurement kind: polyreactivity (PSR sort gate)

>  <Biosequence>
QVQLVESGGGLVQAGGSLRLSCAASGRTFRLNAMGWYRQAPGKERELVAAITRGGRTNYADSVKGRFTISRDNAKNTVYLQMNSLKPEDTAVYYCAARYVERHTDYYYWGQGTQVTVSS

>  <Reported result>
low polyreactivity

$$$$
>  <Biosequence>
QVQLVESGGGLVQAGGSLRLSCAASGRTFSRNAMGWYRQAPGKEREFVASISRSGTSTYYADSVKGRFTISRDNAKNTVYLQMNSLKPEDTAVYYCAKTYASSQGYDYWGQGTQVTVSS

>  <Reported result>
high polyreactivity

$$$$
>  <Biosequence>
QVQLVESGGGLVQAGGSLRLSCAASGLTFRSYTMGWYRQAPGKERELVAAISSGGSTYYADSVKGRFTISRDNAKNTVYLQMNSLKPEDTAVYYCAAPRGHGKYYSWGQGTQVTVSS

>  <Reported result>
high polyreactivity

$$$$
>  <Biosequence>
QVQLVESGGGLVQAGGSLRLSCAASGSTFVGYTMGWYRQAPGKERELVASITSDGSTNYADSVKGRFTISRDNAKNTVYLQMNSLKPEDTAVYYCNADIRRHGGYAHEYWGQGTQVTVSS

>  <Reported result>
low polyreactivity

$$$$

# ---- query sequence ----
// query Return value of polyreactivity (PSR sort gate) for input QVQLVESGGGFVQAGGSLRLSCAASGRTFLAMGWYRQAPGKERELVAAISRTNYADSVKGRFTISRDNAKNTVYLQMNSLKPEDTAVYYCNARRSYFLRYGVNYWGQGTQVTVSS , no commentary.
// result low polyreactivity
